- ASSAY_TARGET: T1, mouse MASP-2 D4-6 recombinant protein (mouse, UniProt Q91WP0 298-685)
- T1 construct: Made 'similarly' to the human protein (N-terminal his6 tag)
- T1 sequence (Q91WP0 other isoform, or with tags, fused parts or gaps limits assumed): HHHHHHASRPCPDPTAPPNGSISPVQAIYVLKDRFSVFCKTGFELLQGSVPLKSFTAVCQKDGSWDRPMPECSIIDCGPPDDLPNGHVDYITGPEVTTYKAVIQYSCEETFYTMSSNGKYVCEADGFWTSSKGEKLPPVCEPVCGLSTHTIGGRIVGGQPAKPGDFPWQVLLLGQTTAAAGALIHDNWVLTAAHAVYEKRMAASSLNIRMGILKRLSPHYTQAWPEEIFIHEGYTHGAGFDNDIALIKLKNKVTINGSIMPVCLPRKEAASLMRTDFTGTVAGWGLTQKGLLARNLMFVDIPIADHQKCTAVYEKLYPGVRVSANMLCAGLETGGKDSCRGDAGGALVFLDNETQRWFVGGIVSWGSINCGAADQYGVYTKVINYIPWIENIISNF
- PROTOCOL_TEXT: ELISA, antigen coated, chimeric IgG titrated, anti-human Fc-HRP
Label Fulfilled when EC50 is strictly below 0.9 nM; at or above that, label Not fulfilled.

>>> assigned_category("chimeric antibody 10L3 (antibody, V domains shown) VH: DVQLQESGPGLVKPSQSLSLTCTVTGYSITSDYAWNWIRQFPGNKLEWMGYISYSGRTSYNPSLKSRISITRDTSKNQFFLQLNSVTTEDTATYYCAKLGGGHGMDYWGQGTSVTVSS VL: IVMTQSQKFMSTSVGDRVSVTCKASQNVDTNVAWYQQKPGQSPKALIYSASYRYSGVPDRFTGSGSGTDFTLTISNVQSEDLAEYFCLQYNSYLTFGSGTKLELK")
"Not fulfilled"
>>> assigned_category("chimeric antibody 4F18 (antibody, V domains shown, to be rechecked) VH: EVQLQESGPGLVKPSQSLSLACTVTGYSITSDYAWHWIRQFPGNKLEWMGFISYSGRTNYNPPLTSRISITRDTSKNQFFLQLNSVTTEDTATYYCARSYDYWFGYWGQGTLVTVSA VL: NVLMTQTPLSLPVSLGDQASISCRSSQSLVHSNGNTYLEWYMQKPGQSPKLLIYTVSRRFSGVPDRFSGSGSGTDFTLKISRVEAEDLGVYYCFQGSHVPVTFGAGTKLELK")
"Fulfilled"
>>> assigned_category("chimeric antibody 3B9 (antibody, V domains shown) VH: DVQLQESGPGLVRPSQSLSLTCTVTGYSITSDYAWNWIRQFPGNKLEWMGYISYSGRTSYNPSLKSRLSITRDTSKNQFFLQLNSVSSADTATYYCAIISTAVDFDYWGQGTTLTVSS VL: QTVLTQSPAIMSASLGERVTMTCTASSSVSSSYLLWYQQKPGSSPKLWIYSTSKLASGVPVRFSGSGSGTSYSLTISSMEADDAATYYCLQYNRSPLTFGAGTKLELK")
"Not fulfilled"
>>> assigned_category("chimeric antibody 1B2 (antibody, V domains shown) VH: DVQLQESGPGLVKPSQSLSLTCTVTGYSITSDYAWNWIRQFSGDKLEWMGYISYSGSTSYNPSLKSRISITRDTSKNQFFLHLSSVTTEDTATYFCARYWGDYWGHGTTLTVSS VL: DSVMTQSQKFMSTSVGDRVSVTCKASHNVGTNVAWFQQKPGQSPKGLIYSASYRSSGVPDRFTGSGSGTDFTLTISNVQSEDLAEYFCLQYNSNPLTFGGGTKLEVK")
"Not fulfilled"
>>> assigned_category("chimeric antibody 25L15 (antibody, V domains shown) VH: KVKLVESGGDLVKPGGSLKISCAASGFTFSNYAMSWIRQTPDKRLEWVATVSSGGPYTYYPDSVKGRFTISRDNAENTLYLQMSSLRSDDTAIYYCARQIYSDYDVTYWGQGTLVTVSA VL: QIVLSQSPAILSASPGETVTMTCRVSSSVSYMYWLQQKPGSSPKPWIYATSNLASGVPARFSGSGSGTSYSLTITRVEAEDAATYYCQQWSFRPWTFGGGTKLEIK")
"Fulfilled"
>>> assigned_category("chimeric antibody 16A17 (antibody, V domains shown) VH: DVQLQESGPGLVKPSQSLSLTCTVTGYSITSDYAWKWIRQFPGNKLEWMGYISYSGSTSYHPSLKGRISITRDTSKNQFFLQLNSVTADDTATYYCAILGYYAMDYWGQGTSVTVSS VL: DIVMTQSQKFMSTSVGDRVSITCKASQNVRVDVAWYQQKSGQSPRALIYLASNRHTGVPDRFTGSGSGTDFTLTITNVQSEDLADYFCPQHWSYPLTFGGGTKLEIK")
"Not fulfilled"

Origin of measurements: patent US20240067751A1
